# solubility kinetic values compiled below
conditions: buffer; pH 7.4; 200.0 µM
State just the number; it will be interpreted in µg/mL.

| molecule | observed result |
| --- | --- |
| O=C(c1cn(Cc2ccccc2F)c2ncccc12)C(F)(F)F | 2.8 |

Attention now turns to another entry.
I have this molecule here, CC1(C(=O)N2CCN(c3ccccc3)CC2)CC1(Cl)Cl (stereo unspecified) , and I need its recorded solubility kinetic.
46.8

----------
settings: buffer; pH 7.4; 200.0 µM
Please use t whenever solubility kinetic is not below 6 µg/mL, and f whenever it is.

Previously resolved entries follow.
| molecule | class name |
| --- | --- |
| CN(C)CCCC1Sc2ccccc2Sc2ccccc21.O=C(O)C(=O)O (stereo unspecified) | t |
| Cc1ccc(NC(=O)C(C)OC(=O)/C=C/c2ccccc2)cc1 (stereo unspecified) | f |
| Cc1cc(S(=O)(=O)Nc2noc3ccccc23)ccc1F | t |
| O=C(Nc1ccc(F)cc1)c1ccc2[nH]c(=O)c(=O)[nH]c2c1 | t |
| Cc1ccc(Nc2c(-c3ccccc3)nc3cnccn23)cc1 | f |

Can CC(=O)N1CCN(C(=O)c2ccc(C(=O)c3ccccc3)cc2)CC1 be said to have solubility kinetic at or above 6 µg/mL?
t

Can CCN(Cc1nc(-c2ccc(C)cc2)no1)C(=O)c1ccco1 be said to have solubility kinetic at or above 6 µg/mL?
t

Can CN(CC(=O)Nc1cccc(F)c1)C(=O)COc1ccc2c(c1)CCC2 be said to have solubility kinetic at or above 6 µg/mL?
f

Can Cc1cccc(CSc2nnc([C@@H]3CCCN3)o2)c1.Cl be said to have solubility kinetic at or above 6 µg/mL?
t

Can COc1ccc(NC(=O)COC(=O)C(NC(=O)c2ccc(C)cc2)C(C)C)cn1 (stereo unspecified) be said to have solubility kinetic at or above 6 µg/mL?
t

----------
conditions: buffer; pH 7.4; 200.0 µM
parameter measured: log10(solubility kinetic) (log10 of the value in µg/mL)
Quick note: numbers are log10 of solubility kinetic, with µg/mL as the unit.

Solved cases (5 shown):
| compound | log10(solubility kinetic) |
| --- | --- |
| CCCC(=O)C1=C(O)C(C(=O)OC)C(C)(C)CC1=NCCc1ccccc1 (configuration not stated) | 1.73 |
| CCN1C(=O)C(C(=O)c2ccccc2)SC1=S (configuration not stated) | 1.58 |
| CCCn1c(C(=O)c2ccccc2)nc2ccccc21 | 0.99 |
| N#Cc1ccc(C(=O)NCCCSc2ccccc2)cc1 | 0.81 |
| O=C(CN1C(=O)NC2(CCCC2)C1=O)Nc1nc(-c2ccccc2)cs1 | 0.23 |

Attention now turns to another entry.
I have this compound here, CCOC(=O)c1cc(S(=O)(=O)N2CCOCC2)cn1C , and I need its recorded log10(solubility kinetic).
1.65

----------
# log10(solubility kinetic) values compiled below
settings: buffer; pH 7.4; 200.0 µM
Quick note: numbers are log10 of solubility kinetic, with µg/mL as the unit.

Solved cases (3 shown):
| structure | parameter measured | observed result |
| --- | --- | --- |
| O=C1NCCN/C1=C\C(=O)c1ccc(F)cc1 | log10(solubility kinetic) | 1.51 |
| COc1ccc2c(c1OC)C(=O)N(c1ccc(O)cc1)C2=O | log10(solubility kinetic) | 1.62 |
| Cl.O=[N+]([O-])c1cccc(CNCc2ccccc2)c1 | log10(solubility kinetic) | 1.60 |

I have this compound here, CSc1sccc1/C=C(/C#N)C(=O)c1ccco1 , and I need its recorded log10(solubility kinetic).
1.35

I have this compound here, CCCCS(=O)(=O)N1CCC(C(=O)Oc2ccc(Cl)cc2)CC1 , and I need its recorded log10(solubility kinetic).
0.23

I have this compound here, O=S(=O)(Nc1ccc(OC(F)(F)F)cc1)c1cccc2nonc12 , and I need its recorded log10(solubility kinetic).
1.66

----------
details: buffer; pH 7.4; 200.0 µM
parameter measured: solubility kinetic (µg/mL)
State just the number; it will be interpreted in µg/mL.

Solved cases (5 shown):
| compound | solubility kinetic / µg/mL |
| --- | --- |
| Fc1ccccc1NC(=S)NCCc1cccc(Cl)c1 | 36.7 |
| Cc1ccccc1Cn1c(=O)n(C)c(=O)c2sccc21 | 5.9 |
| COc1ccccc1CNCc1cc(=O)oc2c(C)c(C)ccc12 | 3.6 |
| Cc1ccccc1SCC(=O)NCCCn1ccnc1 | 42.9 |
| CC1CCC2(CC1)NC(=O)N(CC(=O)N1CC(C)CC(C)C1)C2=O (configuration not stated) | 15.8 |

I have this compound here, COc1ccc(CC(=O)Nc2nc3ccccc3[nH]2)cc1 , and I need its recorded solubility kinetic.
0.7

I have this compound here, O=c1[nH]c(-c2ccccc2)c(-c2ccccc2)o1 , and I need its recorded solubility kinetic.
14.8

----------
# solubility kinetic values compiled below
details: buffer; pH 7.4; 200.0 µM
State just the number; it will be interpreted in µg/mL.

I have this compound here, ClC1(Cl)CC1Cn1cnc2ccccc21 (stereo unspecified) , and I need its recorded solubility kinetic.
33.4

I have this compound here, Cc1ccc(-c2nc(CNC(=O)c3cc(C)on3)cs2)cc1 , and I need its recorded solubility kinetic.
35.4

I have this compound here, COc1cccc(NC(=O)COC(=O)/C=C/c2ccco2)c1 , and I need its recorded solubility kinetic.
30.5

I have this compound here, COc1ccc(CNc2ccc3c(c2)nc(C)n3C)cc1OC , and I need its recorded solubility kinetic.
37.2

----------
# log10 of solubility kinetic values compiled below
conditions: buffer; pH 7.4; 200.0 µM
Quick note: numbers are log10 of solubility kinetic, with µg/mL as the unit.

Solved cases (5 shown):
| compound | observed result |
| --- | --- |
| CCCC(=O)Nc1c(-c2cccc(C)c2)c(=O)c2ccccc2n1C | 1.12 |
| COc1ccc(CCC(C)NCCc2ccc(Cl)cc2Cl)cc1 (stereo not given) | 1.33 |
| Cc1cc(C(=O)COC(=O)c2cccnc2Cl)c(C)n1C | 1.11 |
| O=C(NC1CCCc2ccccc21)c1ccccn1 (stereo not given) | 1.56 |
| CNC(=O)c1c(NC(=O)c2ccco2)sc(C)c1C | 1.06 |

I have this compound here, O=C(O)C(=O)O.c1ccc(CNC23CC4CC(CC(C4)C2)C3)nc1 , and I need its recorded log10 of solubility kinetic.
1.66

I have this compound here, CC(C)[C@H](NC(=O)c1ccccc1)C(=O)OCC(=O)Nc1ncc(Cl)cc1Cl , and I need its recorded log10 of solubility kinetic.
1.66

----------
conditions: buffer; pH 7.4; 200.0 µM
parameter measured: solubility kinetic

| structure | solubility kinetic |
| --- | --- |
| CN1CCCN(C(=O)c2ccc(Br)cc2)CC1 | 0.0414 mg/mL |
| Cc1onc(-c2ccccc2Cl)c1C(=O)N1CCCCC1 | > 0.0457 mg/mL |

I have this compound here, CN1C(=O)/C(=C2\SC(=S)N(CCCCCC(=O)O)C2=O)c2ccccc21 , and I need its recorded solubility kinetic.
0.006 mg/mL

I have this compound here, O=C(Nc1cccc(S(=O)(=O)N2CCOCC2)c1)c1ccc(Cl)nc1 , and I need its recorded solubility kinetic.
> 0.0573 mg/mL

I have this compound here, COc1ccc(NC(=O)COC(=O)c2ccc([N+](=O)[O-])o2)cc1Cl , and I need its recorded solubility kinetic.
0.0192 mg/mL

I have this compound here, C[C@H](NC(=O)c1ccco1)C(=O)N1CCN(c2ccc(C(F)(F)F)cn2)CC1 , and I need its recorded solubility kinetic.
> 0.0595 mg/mL

----------
details: buffer; pH 7.4; 200.0 µM
parameter measured: solubility kinetic (µg/mL)
State just the number; it will be interpreted in µg/mL.

Solved cases (2 shown):
| compound | solubility kinetic [µg/mL] |
| --- | --- |
| O=C(COc1cccc(F)c1)Nc1nc(-c2ccncc2)cs1 | 5 |
| Cl.O=C(CCN1CCN(c2ccccc2F)CC1)c1ccc(Br)cc1 | 42.3 |

Attention now turns to another entry.
I have this compound here, O=C(CSc1nc2ccccc2c(=O)n1-c1ccccc1F)N1CCOCC1 , and I need its recorded solubility kinetic.
54.3

----------
details: buffer; pH 7.4; 200.0 µM
Please use Condition met whenever solubility kinetic is not below 20 µg/mL, and Condition not met whenever it is.

| compound | class name |
| --- | --- |
| COc1cccc(NC(=O)CSc2cccc[n+]2[O-])c1 | Condition met |
| COC(=O)c1sccc1NC(=O)Nc1ccc(C)cc1 | Condition not met |
| COc1cccc(NC(=O)c2nc(SC)ncc2Cl)c1 | Condition not met |
| CC1c2cc3c(cc2CCN1CC(=O)Nc1ccccc1)OCCCO3 (configuration not stated) | Condition not met |

Can Cc1ccccc1S(=O)(=O)c1cc2ccccc2nc1N be said to have solubility kinetic at or above 20 µg/mL?
Condition not met

Can Cc1oc(/N=C/c2cccc([N+](=O)[O-])c2)c(C#N)c1C be said to have solubility kinetic at or above 20 µg/mL?
Condition not met
